# Tested on: potato leafhopper (Empoasca fabae Harris)
# EXPERIMENT_SUMMARY: whole plant or invertebrate
# Assay type: in vivo
# MEASUREMENT_SETUP: Empoasca fabae; rate 1000 ppm, alone; read-out: % mortality (obs)
Listed next: entries and their corresponding mortality at 1000 ppm.
Report as a plain number; the unit % is understood.

* CC(C)N1C(=O)N(c2ccccc2)CS/C1=N\C(C)(C)C | 0
* CCOP(=S)(OCC)Oc1nc(Cl)c(Cl)cc1Cl | 7
* Cc1ccc(/N=C/N(C)/C=N/c2ccc(C)cc2C)c(C)c1 | 13
* O=C(NC(=O)c1c(F)cccc1F)Nc1cc(Cl)c(OC(F)(F)C(F)F)c(Cl)c1 | 13
* CCOC(=O)NCCOc1ccc(Oc2ccccc2)cc1 | 0

Note: attention shifts to another entry.
[ask] State the recorded mortality at 1000 ppm for this entry: `Nc1nc(N)nc(NC2CC2)n1`
[reply] 0

====

# Tested on: silverleaf whitefly (Bemisia argentifolii Bellows and Perring)
# EXPERIMENT_SUMMARY: whole plant or invertebrate
# Assay type: in vivo
# MEASUREMENT_SETUP: Bemisia argentifolii, in Gossypium hirsutum; Table 2B; rate 1000 ppm; read-out: % mortality (obs)
Listed next: entries and their corresponding mortality at 1000 ppm.
Report as a plain number; the unit % is understood.

* Nc1nc(N)nc(NC2CC2)n1 [Cyromazine] | 2
* CC1(C)CNC(=NN=C(/C=C/c2ccc(C(F)(F)F)cc2)/C=C/c2ccc(C(F)(F)F)cc2)NC1 [Hydramethylnon] | 0

[ask] State the recorded mortality at 1000 ppm for this entry: CCOP(=S)(OCC)Oc1nc(Cl)c(Cl)cc1Cl [Chlorpyrifos]
[reply] 0

[ask] State the recorded mortality at 1000 ppm for this entry: CC(C)N1C(=O)N(c2ccccc2)CS/C1=N\C(C)(C)C [Buprofezin]
[reply] 96

[ask] State the recorded mortality at 1000 ppm for this entry: Cc1ccc(/N=C/N(C)/C=N/c2ccc(C)cc2C)c(C)c1 [Amitraz]
[reply] 0

[ask] State the recorded mortality at 1000 ppm for this entry: CCc1ccc(C(=O)NN(C(=O)c2cc(C)cc(C)c2)C(C)(C)C)cc1 [Tebufenozide]
[reply] 6

====

# System: corn planthopper (Peregrines maidis)
# EXPERIMENT_SUMMARY: whole plant or invertebrate
# Assay type: in vivo
# MEASUREMENT_SETUP: Corn Plant Hopper; rate 100 ppm; read-out: % mortality (obs)
# Experimental: Test compounds were formulated using a solution containing 10% acetone, 90% water and 300 ppm X-77® Spreader Lo-Foam Formula non-ionic surfactant containing alkylarylpolyoxyethylene, free fatty acids, glycols and 2-propanol (Loveland Industries, Inc.) to provide the desired concentration in ppm. Formulated test solutions were then applied in 1 mL volumes through a SUJ2 atomizer nozzle with 1/8 JJ custom body (Spraying Systems Co.) positioned 1.27 cm (0.5 inches) above the top of each test unit. […]
Listed next: entries and their corresponding mortality at 100 ppm.
Kindly report the value followed by its unit.

[ask] Request: mortality at 100 ppm, test system corn planthopper (Peregrines maidis), entry CCc1ccc(C(=O)NN(C(=O)c2cc(C)cc(C)c2)C(C)(C)C)cc1 [Tebufenozide]
[reply] 12%

[ask] Request: mortality at 100 ppm, test system corn planthopper (Peregrines maidis), entry `CNC(=O)c1cc(Cl)cc(C)c1NC(=O)c1cc(Br)nn1-c1ncccc1Cl`
[reply] 19%

====

# System: cotton melon aphid (Aphis gossypii Glover)
# EXPERIMENT_SUMMARY: whole plant or invertebrate
# Type: in vivo
# MEASUREMENT_SETUP: Aphis gossypii; rate 1000 ppm; read-out: % mortality (obs)
Listed next: entries and their corresponding mortality at 1000 ppm.
Report as a plain number; the unit % is understood.

Check out these entries, answers already filled in.
• Nc1nc(N)nc(NC2CC2)n1 [Cyromazine] = 28
• CC(C)N1C(=O)N(c2ccccc2)CS/C1=N\C(C)(C)C [Buprofezin] = 36
• CC1(C)CNC(=NN=C(/C=C/c2ccc(C(F)(F)F)cc2)/C=C/c2ccc(C(F)(F)F)cc2)NC1 [Hydramethylnon] = 40

[ask] State the recorded mortality at 1000 ppm for this entry: O=C(NC(=O)c1c(F)cccc1F)Nc1cc(Cl)c(OC(F)(F)C(F)F)c(Cl)c1 [Hexaflumuron]
[reply] 30

[ask] State the recorded mortality at 1000 ppm for this entry: CCOC(=O)NCCOc1ccc(Oc2ccccc2)cc1 [Fenoxycarb]
[reply] 34

[ask] State the recorded mortality at 1000 ppm for this entry: Cc1ccc(/N=C/N(C)/C=N/c2ccc(C)cc2C)c(C)c1 [Amitraz]
[reply] 29

====

# System: corn planthopper (Peregrines maidis)
# EXPERIMENT_SUMMARY: whole plant or invertebrate
# Assay type: in vivo
# MEASUREMENT_SETUP: Corn Plant Hopper; rate 10 ppm; read-out: % mortality (obs)
Listed next: entries and their corresponding mortality at 10 ppm.
Report as a plain number; the unit % is understood.

Check out these entries, answers already filled in.
• CC(C)N1C(=O)N(c2ccccc2)CS/C1=N\C(C)(C)C [Buprofezin] = 96
• Cc1ccc(/N=C/N(C)/C=N/c2ccc(C)cc2C)c(C)c1 [Amitraz] = 3
• CCOC(=O)NCCOc1ccc(Oc2ccccc2)cc1 [Fenoxycarb] = 8

Note: attention shifts to another entry.
[ask] State the recorded mortality at 10 ppm for this entry: COc1cccc(C(=O)NN(C(=O)c2cc(C)cc(C)c2)C(C)(C)C)c1C [Methoxyfenozide]
[reply] 7

====

# System: corn planthopper (Peregrines maidis)
# EXPERIMENT_SUMMARY: whole plant or invertebrate
# Assay type: in vivo
# MEASUREMENT_SETUP: Corn Plant Hopper; rate 1000 ppm; read-out: % mortality (obs)
VALUE_TYPE: mortality at 1000 ppm (%)
Report as a plain number; the unit % is understood.

* CC(C)N1C(=O)N(c2ccccc2)CS/C1=N\C(C)(C)C | 98
* COc1cccc(C(=O)NN(C(=O)c2cc(C)cc(C)c2)C(C)(C)C)c1C [Methoxyfenozide] | 10
* CCOC(=O)NCCOc1ccc(Oc2ccccc2)cc1 | 5
* O=C(NC(=O)c1c(F)cccc1F)Nc1cc(Cl)c(OC(F)(F)C(F)F)c(Cl)c1 | 5
* CCc1ccc(C(=O)NN(C(=O)c2cc(C)cc(C)c2)C(C)(C)C)cc1 [Tebufenozide] | 16

[ask] Request: mortality at 1000 ppm, test system corn planthopper (Peregrines maidis), entry `Nc1nc(N)nc(NC2CC2)n1`
[reply] 8

====

# Test system: potato leafhopper (Empoasca fabae Harris)
# EXPERIMENT_SUMMARY: whole plant or invertebrate
# Format: in vivo
# MEASUREMENT_SETUP: Empoasca fabae; rate 100 ppm, alone; read-out: % mortality (obs)
Listed next: entries and their corresponding mortality at 100 ppm.
Report as a plain number; the unit % is understood.

Check out these entries, answers already filled in.
• CC(C)N1C(=O)N(c2ccccc2)CS/C1=N\C(C)(C)C = 20
• Cc1ccc(/N=C/N(C)/C=N/c2ccc(C)cc2C)c(C)c1 = 7

Note: attention shifts to another entry.
[ask] Request: mortality at 100 ppm, test system potato leafhopper (Empoasca fabae Harris), entry `O=C(NC(=O)c1c(F)cccc1F)Nc1cc(Cl)c(OC(F)(F)C(F)F)c(Cl)c1`
[reply] 13

====

# Tested on: cotton melon aphid (Aphis gossypii Glover)
# EXPERIMENT_SUMMARY: whole plant or invertebrate
# Type: in vivo
# MEASUREMENT_SETUP: Aphis gossypii; rate 10 ppm; read-out: % mortality (obs)
VALUE_TYPE: mortality at 10 ppm
Kindly report the value followed by its unit.

Check out these entries, answers already filled in.
* Nc1nc(N)nc(NC2CC2)n1 | 23%
* CC(C)N1C(=O)N(c2ccccc2)CS/C1=N\C(C)(C)C | 34%
* CCOC(=O)NCCOc1ccc(Oc2ccccc2)cc1 | 16%

Note: attention shifts to another entry.
[ask] State the recorded mortality at 10 ppm for this entry: `Cc1ccc(/N=C/N(C)/C=N/c2ccc(C)cc2C)c(C)c1`
[reply] 20%

====

# System: corn planthopper (Peregrines maidis)
# EXPERIMENT_SUMMARY: whole plant or invertebrate
# Assay type: in vivo
# MEASUREMENT_SETUP: Corn Plant Hopper; rate 100 ppm; read-out: % mortality (obs)
VALUE_TYPE: mortality at 100 ppm
Kindly report the value followed by its unit.

Check out these entries, answers already filled in.
• COc1cccc(C(=O)NN(C(=O)c2cc(C)cc(C)c2)C(C)(C)C)c1C [Methoxyfenozide] = 2%
• O=C(NC(=O)c1c(F)cccc1F)Nc1cc(Cl)c(OC(F)(F)C(F)F)c(Cl)c1 = 6%
• CC(C)N1C(=O)N(c2ccccc2)CS/C1=N\C(C)(C)C = 97%

Note: attention shifts to another entry.
[ask] Request: mortality at 100 ppm, test system corn planthopper (Peregrines maidis), entry `CCOC(=O)NCCOc1ccc(Oc2ccccc2)cc1`
[reply] 2%

====

Listed next: entries and their corresponding mortality at 100 ppm.
# Test system: potato leafhopper (Empoasca fabae Harris)
# EXPERIMENT_SUMMARY: whole plant or invertebrate
# Assay type: in vivo
# MEASUREMENT_SETUP: Empoasca fabae; rate 100 ppm, alone; read-out: % mortality (obs)
# Method: Test compounds were formulated using a solution containing 10% acetone, 90% water and 300 ppm X-77® Spreader Lo-Foam Formula non-ionic surfactant containing alkylarylpolyoxyethylene, free fatty acids, glycols and 2-propanol (Loveland Industries, Inc.) to provide the desired concentration in ppm. Formulated test solutions were then applied in 1 mL volumes through a SUJ2 atomizer nozzle with 1/8 JJ custom body (Spraying Systems Co.) positioned 1.27 cm (0.5 inches) above the top of each test unit. […]
Report as a plain number; the unit % is understood.

Check out these entries, answers already filled in.
- CCOC(=O)NCCOc1ccc(Oc2ccccc2)cc1 [Fenoxycarb]: 20
- CCOP(=S)(OCC)Oc1nc(Cl)c(Cl)cc1Cl [Chlorpyrifos]: 0

Note: attention shifts to another entry.
[ask] State the recorded mortality at 100 ppm for this entry: Nc1nc(N)nc(NC2CC2)n1 [Cyromazine]
[reply] 0
